target_system: recombinant human TFPI (tissue factor pathway inhibitor) (human, UniProt P10646 29-304)
measurement_notes: cell-based or functional assay
Field: FXa assay % of FXa alone, 5 nM Ab, 10 nM TFPI. Provide a value for each of the binders that follow.
Return type: number; implicit unit %.

*Q* Looking for the measured FXa assay % of FXa alone, 5 nM Ab, 10 nM TFPI of clone 12 (antibody, V domains shown, human IgG4/kappa IgG as purified; also called No. 12 antibody) VH: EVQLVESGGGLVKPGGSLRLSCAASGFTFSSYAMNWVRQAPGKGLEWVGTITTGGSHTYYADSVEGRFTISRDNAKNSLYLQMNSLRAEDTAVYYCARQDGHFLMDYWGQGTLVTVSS VL: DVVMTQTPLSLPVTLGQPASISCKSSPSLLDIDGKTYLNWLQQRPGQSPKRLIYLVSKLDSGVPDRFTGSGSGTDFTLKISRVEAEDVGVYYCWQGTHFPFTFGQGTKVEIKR , can you help?
*A* 38.8

*Q* Another: clone 8 (antibody, V domains shown) VH: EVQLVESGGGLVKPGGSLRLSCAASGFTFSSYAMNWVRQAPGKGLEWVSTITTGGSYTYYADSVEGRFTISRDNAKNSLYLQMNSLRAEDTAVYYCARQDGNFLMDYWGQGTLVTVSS VL: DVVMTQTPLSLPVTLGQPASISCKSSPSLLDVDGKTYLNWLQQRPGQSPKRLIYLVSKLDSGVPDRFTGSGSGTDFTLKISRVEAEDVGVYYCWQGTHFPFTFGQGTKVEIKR
*A* 31

*Q* Another: clone 2 (antibody, V domains shown) VH: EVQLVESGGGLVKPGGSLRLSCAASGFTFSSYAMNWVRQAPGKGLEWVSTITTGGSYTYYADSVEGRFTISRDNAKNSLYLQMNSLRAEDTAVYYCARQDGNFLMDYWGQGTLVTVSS VL: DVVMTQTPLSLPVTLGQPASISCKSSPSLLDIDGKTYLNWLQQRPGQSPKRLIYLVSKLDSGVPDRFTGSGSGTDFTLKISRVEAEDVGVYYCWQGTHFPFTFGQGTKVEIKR
*A* 32.8

*Q* Another: clone 11 (antibody, V domains shown) VH: EVQLVESGGGLVKPGGSLRLSCAASGFTFSSYAMNWVRQAPGKGLEWVGTITTGGSYTYYADSVEGRFTISRDNAKNSLYLQMNSLRAEDTAVYYCARQDGNFLMDYWGQGTLVTVSS VL: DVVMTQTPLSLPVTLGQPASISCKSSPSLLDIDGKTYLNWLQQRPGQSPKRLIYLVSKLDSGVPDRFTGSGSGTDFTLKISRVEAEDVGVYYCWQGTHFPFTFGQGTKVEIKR
*A* 29.6

*Q* Another: clone 1202 (antibody, V domains shown, scFv on yeast at selection; human IgG4/kappa IgG as purified; also called No. 1202 antibody) VH: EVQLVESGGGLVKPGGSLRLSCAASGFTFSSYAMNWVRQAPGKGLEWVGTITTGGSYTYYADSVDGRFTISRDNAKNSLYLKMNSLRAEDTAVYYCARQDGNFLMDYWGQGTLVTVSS VL: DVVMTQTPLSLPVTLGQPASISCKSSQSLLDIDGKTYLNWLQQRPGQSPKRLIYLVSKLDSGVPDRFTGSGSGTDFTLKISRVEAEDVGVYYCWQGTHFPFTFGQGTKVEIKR
*A* 46.2
